- Tested on: IL-2-FL/Gaussia Luciferase
- ASSAY_DETAILS: Dox Induced IL2-FL-Gluc Assay
- Type: cell-based
- CONDITION_DETAILS: 24 hr doxycycline induction, 293FRT/TO cells, Gaussia luciferase signal; read-out: 24 hr Dox Inducible IL2FLGIuc 293FRT/TO: Mean IC50
REPORTED_METRIC: log10 IC50 (log10 of the value in µM)
The figures below represent log10 of IC50, where IC50 is stated in µM.

Query: Dear colleague, please send me the reported log10 IC50 for `CC(C)c1cnc(NC(=O)c2cccn2Cc2ccncc2)s1` when you can.
Result: 0.60

Query: Consider the molecule `O=C(Nc1nc(C#Cc2ccccc2Cl)cs1)c1cccn1Cc1ccncc1` and give its recorded log10 IC50.
Result: -0.13

Query: # return recorded log10 IC50 for entry `COc1ccc(/C=C/c2csc(NC(=O)c3cccn3Cc3ccncc3)n2)nc1`
Result: 0.47

Query: Provide log10 IC50 value for the following molecule: `CC(=O)N(C)c1ccc(/C=C/c2csc(NC(=O)c3cccn3Cc3ccncc3)n2)cc1`
Result: 1.15

Query: Give a short answer stating reported log10 IC50 for `O=C(Nc1nc(Cc2ccccc2)cs1)c1cccn1CCCc1ccncc1` .
Result: 0.03

Query: Specify measured log10 IC50 for `Cc1nc(NC(=O)c2cccn2Cc2ccncc2)sc1C` .
Result: 0.85

Query: Input `Cc1sc(NC(=O)c2cccn2Cc2ccncc2)nc1C1CC1` , output reported log10 IC50.
Result: 0.49

Query: Name the recorded log10 IC50 of the item `CC(C)c1csc(NC(=O)c2cccn2Cc2ccncc2)n1` in your answer.
Result: -0.12

Query: Please list log10 IC50 recorded for the molecule `CC(C)(CCc1ccccn1)c1csc(NC(=O)c2cccn2Cc2ccncc2)n1`
Result: 0.49

Query: Return the recorded log10 IC50 value; entry: `C[C@@H](OC(C)(C)c1csc(NC(=O)c2cccn2Cc2ccncc2)n1)c1ccccc1`
Result: -0.14

Query: In one line, give reported log10 IC50 of the entry O=C(Nc1nc(C2CCC(c3ccccc3)CC2)cs1)c1cccn1Cc1ccncc1 (centres unmarked) .
Result: -0.32

Query: For the molecule `O=C(Nc1nc([C@@H]2CCN(Cc3ccccc3)C2)cs1)c1cccn1Cc1ccncc1` , give its measured log10 IC50 value.
Result: 0.83

Query: Please give the documented log10 IC50 of `O=C(Nc1nc(/C=C/C2CCCCC2)cs1)c1cccn1Cc1ccncc1`
Result: -0.07

Query: Quickly give me recorded log10 IC50 for `CCc1nc(NC(=O)c2cccn2Cc2ccncc2)sc1C`
Result: 0.30

Query: Check the records and state log10 IC50 for CC(OC(C)(C)c1csc(NC(=O)c2cccn2Cc2ccncc2)n1)c1ccccc1 (centres unmarked)
Result: -0.84

Query: Check the records and state log10 IC50 for CC(c1ccccc1)c1csc(NC(=O)c2cccn2Cc2ccncc2)n1 (centres unmarked)
Result: -0.30

Query: Return reported log10 IC50. Input molecule: `O=C(Nc1nc2c(s1)CCC2)c1cccn1Cc1ccncc1`
Result: 0.81

Query: Determine from records and report log10 IC50 for `O=C(Nc1nc([C@@H]2CCCN2Cc2ccccc2)cs1)c1cccn1Cc1ccncc1`
Result: -0.11

Query: Report measured log10 IC50; entry is `CC(C)OC(C)(C)c1csc(NC(=O)c2cccn2Cc2ccc(S(C)(=O)=O)cc2)n1`
Result: 0.76

Query: Note down log10 IC50 recorded for CC(/C=C/c1csc(NC(=O)c2cccn2Cc2ccncc2)n1)c1ccccc1 (centres unmarked)
Result: -0.26

Query: Fill in log10 IC50 for record O=C(Nc1nc(/C=C/C2CCCCO2)cs1)c1cccn1Cc1ccncc1 (centres unmarked)
Result: 0.64

Query: Answer with reported log10 IC50 of `O=C(Nc1nc(/C=C/c2ccccn2)cs1)c1cccn1Cc1ccncc1`
Result: 0.83

Query: Name the recorded log10 IC50 of the item `CN(C)c1ccc(/C=C/c2csc(NC(=O)c3cccn3Cc3ccncc3)n2)cc1` in your answer.
Result: 0.02

Query: In one line, give reported log10 IC50 of the entry `CCc1sc(NC(=O)c2cccn2Cc2ccncc2)nc1C` .
Result: 0.43

Query: Name the recorded log10 IC50 of the molecule listed here: `COc1cccc(/C=C/c2csc(NC(=O)c3cccn3Cc3ccncc3)n2)c1`
Result: 0.42
